These data points were gathered from the supplement of paper PMC11451515.

Test system: SEM cells
assayDetails: cell viability relative to DMSO control; higher = less cytotoxic
conditionSummary: HPLM + 10% dialyzed FBS; 48 h; 0.19 µM
Below, each entry is listed alongside its reported cell viability.
Supply the numeric figure in %, leaving out any unit text.

Examples with answers:
compound=CCCCC(F)(F)[C@@]1(O)CC[C@H]2[C@@H](CC(=O)[C@@H]2CCCCCCC(=O)O)O1 recordedmetric="cell viability" reportedresult=110
compound=CC1(C)NC(=O)N(c2ccc([N+](=O)[O-])c(C(F)(F)F)c2)C1=O recordedmetric="cell viability" reportedresult=44.9
compound=COc1c(C)c2c(c(O)c1C/C=C(\C)CCC(=O)OCCN1CCOCC1)C(=O)OC2 recordedmetric="cell viability" reportedresult=121
compound=O=C(O)c1nn(Cc2ccc(Cl)cc2Cl)c2ccccc12 recordedmetric="cell viability" reportedresult=54.8

stdin: Fill in the blank: the reported cell viability of `O=C(O)CCCc1ccc(N(CCCl)CCCl)cc1` is ____.
stdout: 129

stdin: Now consider `CN1C(=O)\C(=C/C2=C1N=C(NC3CCOCC3)N=C2)OC4=C(F)C=C(F)C=C4` and answer again.
stdout: 90.3

stdin: Now consider Oc1ccc(C2CNCCc3c2cc(O)c(O)c3Cl)cc1 (centres undefined) and answer again.
stdout: 104

stdin: Now consider `NCC/1=C/NC(=S)N1[C@H]2CCC3=C(F)C=C(F)C=C3C2` and answer again.
stdout: 102

stdin: Now consider `CC(=O)O/N=C1/C(=C2\C(=O)Nc3cc(Br)ccc32)Nc2ccccc21` and answer again.
stdout: 113

----------
Test system: NOMO1
assayDetails: cell viability relative to DMSO control; higher = less cytotoxic
conditionSummary: HPLM + 10% dialyzed FBS; 48 h; 0.000781 µM
Below, each entry is listed alongside its reported cell viability.
Supply the numeric figure in %, leaving out any unit text.

compound=Cc1ccc(Nc2nccc(N(C)c3ccc4c(C)n(C)nc4c3)n2)cc1[S+](N)(=O)[O-] recordedmetric="cell viability" units=% reportedresult=107
compound=O=C(O)CCc1ccc(NCc2cccc(Oc3ccccc3)c2)cc1 recordedmetric="cell viability" units=% reportedresult=97.4
compound=CN(C)[C@H]\1[C@@H]2[C@@H](O)[C@H]3\C(=C(O)/[C@]2(O)C(=O)\C(=C1O)C(N)=O)C(=O)C4=C(C=CC=C4O)[C@@]3(C)O recordedmetric="cell viability" units=% reportedresult=134
compound=O=C(/C=C/c1cccnc1)NCCCCC1CCN(C(=O)c2ccccc2)CC1 recordedmetric="cell viability" units=% reportedresult=102

--- query ---
stdin: Fill in the blank: the reported cell viability of Oc1ccc(C2CNCCc3c2cc(O)c(O)c3Cl)cc1 (stereo not given) is ____.
stdout: 91.8

----------
System: SEM cells
assayDetails: AUC of viability dose-response curve (% viability x log10 dose units); higher = less sensitive
conditionSummary: RPMI 5 mM glucose + 10% dialyzed FBS; 48 h
recordedMetric: AUC of viability dose-response curve
// response body must contain only the number

stdin: Fill in the blank: the reported AUC of viability dose-response curve of `CNC(=O)c1ccccc1Sc1ccc2c(/C=C/c3ccccn3)n[nH]c2c1` is ____.
stdout: 395

stdin: Now consider CC(CCc1ccc(O)cc1)NCCc1ccc(O)c(O)c1 (stereo not drawn) and answer again.
stdout: 439

stdin: Now consider `NC(=O)Cc1cccc(C(=O)c2ccccc2)c1N` and answer again.
stdout: 428

stdin: Now consider `CCN(CC)CCNC(=O)c1ccc2nc(-c3ccccc3)c(-c3ccc(CN4CCC(n5c(=O)[nH]c6ccccc65)CC4)cc3)nc2c1` and answer again.
stdout: 243

stdin: Now consider `CCCCc1oc2ccccc2c1C(=O)c1cc(I)c(OCCN(CC)CC)c(I)c1` and answer again.
stdout: 454

stdin: Now consider `N[C@@H](Cc1cc(I)c(Oc2cc(I)c(O)c(I)c2)c(I)c1)C(=O)O` and answer again.
stdout: 438

stdin: Now consider `OC[C@H]1O[C@H](C[C@@H]1O)N2\C=C(\I)C(=O)NC2=O` and answer again.
stdout: 386

stdin: Now consider `CC[C@@H](C)[C@H](NC(=O)[C@H](CC1CCCCC1)NC(=O)c1ccno1)C(=O)N1CCC2(CCc3ccccc32)CC1` and answer again.
stdout: 449

stdin: Now consider `O=C1CCc2cc(OCCCCc3nnnn3C3CCCCC3)ccc2N1` and answer again.
stdout: 428

stdin: Now consider `Cc1nc(N)sc1-c1ccnc(Nc2ccc(N3CCOCC3)cc2)n1` and answer again.
stdout: 359

stdin: Now consider `C[C@]12CCC(=O)C(O)=C1CC[C@@H]1[C@@H]2CC[C@]2(C)C(=O)CC[C@@H]12` and answer again.
stdout: 460

stdin: Now consider `N#C[C@@H]1C[C@@H]2C[C@@H]2N1C(=O)[C@@H](N)C12CC3CC(CC(O)(C3)C1)C2` and answer again.
stdout: 455

stdin: Now consider `Cc1cc(-c2ccc(CC(=O)Nc3ccc(-c4cccnc4)cc3)cc2)ccn1` and answer again.
stdout: 413

stdin: Now consider `O=C(Nc1ccncc1)C(=O)c1cn(Cc2ccc(Cl)cc2)c2ccccc12` and answer again.
stdout: 247

stdin: Now consider `NC(=O)c1ncn([C@@H]2O[C@H](CO)[C@@H](O)[C@H]2O)c1N` and answer again.
stdout: 458

stdin: Now consider `Oc1ccc(-c2nc(-c3ccncc3)c(-c3ccc(F)cc3)[nH]2)cc1` and answer again.
stdout: 247
